# System: TNFα production in LPS-stimulated human monocytes
# method: Cot Monocyte TNFα Cell Based Assay
# conditions.used: Homo sapiens, Monocyte, LPS-stimulated human monocytes, TNFα TR-FRET; read-out: EC50 TNF
pEC50: −log10 of the molar value.
measure: pEC50

The examples below pair each entry with its known result.
Record summary for Cc1c([C@H](Nc2cc(C#N)c3ncc(C#N)c(NCC(C)(C)C)c3c2)c2cn(C3(C(F)F)CC3)nn2)cccc1-n1cnnc1 : reported pEC50 = ≤ 6.00

Record summary for CC(C)(C)CNc1c(C#N)cnc2c(F)cc(N[C@H](c3cn(C4(C(F)(F)F)CC4)nn3)c3ccccc3Cl)cc12 : reported pEC50 = ≤ 6.00

Further cases:
Record summary for CC(C)(C)CNc1c(C#N)cnc2c(Cl)cc(N[C@@H](c3cccc(C4(C#N)CC4)c3)c3cn(C4(C(F)(F)F)CC4)nn3)cc12 : reported pEC50 = ≤ 6.00

---

# test.system: human Cot catalytic domain (30-397 amino acids) (Homo sapiens, UniProt P41279)
# Construct: Purified recombinant human Cot catalytic domain (30-397 amino acids) was purchased from Cama Biosciences; purchased Cama Biosciences (so in the source)
# Sequence (P41279 30-397): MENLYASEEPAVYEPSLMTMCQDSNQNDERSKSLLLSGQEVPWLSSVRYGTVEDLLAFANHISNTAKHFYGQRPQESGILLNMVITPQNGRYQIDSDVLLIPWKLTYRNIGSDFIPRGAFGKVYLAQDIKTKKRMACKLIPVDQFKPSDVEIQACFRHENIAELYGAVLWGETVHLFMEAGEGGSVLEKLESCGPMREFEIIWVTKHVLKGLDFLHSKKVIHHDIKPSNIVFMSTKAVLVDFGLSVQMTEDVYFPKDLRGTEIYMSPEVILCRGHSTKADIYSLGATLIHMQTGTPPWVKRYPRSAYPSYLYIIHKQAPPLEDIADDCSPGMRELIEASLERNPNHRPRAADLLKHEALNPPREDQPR
# method: High Throughput Cot Biochemical Assay (KinEASE TR-FRET)
# conditions.used: Cot biochemical HTRF (KinEASE TR-FRET) assay; read-out: IC50 HTRF
# Description: Example 61: High Throughput Cot Biochemical Assay In this assay, Cot-catalyzes the phosphorylation of a XL665-labeled peptide substrate. Europium conjugated phospho-tyrosine specific antibody binds the resulting phosphorylated peptide. […] Purified recombinant human Cot catalytic domain (30-397 amino acids) was purchased from Cama Biosciences. […]
pIC50: −log10 of the molar value.
Classification field. Basis: pIC50. Definitions: bottom range = under 6, center range = from 6 up to 7, top range = 7 and over

The following compounds have reported results that may help.
Lookup: Hi, small favor: classify Cn1cc(CNc2c(C#N)cnc3c(Cl)cc(N[C@@H](c4ccccc4)c4cn(C5CCN(C(C)(C)C)CC5)nn4)cc23)cn1 by its pIC50 when you get a moment.
Found: center range

Lookup: Hi, small favor: classify CC(C)(C)N1CCC(n2cc([C@@H](Nc3cc(Cl)c4ncc(C#N)c(NCC5CCCCO5)c4c3)c3ccc(F)cc3)nn2)CC1 (some centres unmarked) by its pIC50 when you get a moment.
Found: center range

Lookup: Hi, small favor: classify CC(C)(C)N1CCC(n2cc([C@@H](Nc3cc(Cl)c4ncc(C#N)c(N[C@@H]5CCCc6ccccc65)c4c3)c3ccccc3)nn2)CC1 by its pIC50 when you get a moment.
Found: bottom range

Lookup: Hi, small favor: classify N#Cc1cnc2c(Cl)cc(N[C@@H](c3ccccc3)c3cn([C@@H]4CCNC[C@H]4O)nn3)cc2c1Nc1cccc(Cl)c1 by its pIC50 when you get a moment.
Found: top range

Lookup: Hi, small favor: classify CC[C@@H](C)Nc1c(C#N)cnc2c(Cl)cc(N[C@@H](c3ccccc3)c3cn(C(C)C)nn3)cc12 by its pIC50 when you get a moment.
Found: center range

Further cases:
Lookup: Hi, small favor: classify CC1(C)CC(n2cc([C@@H](Nc3cc(Cl)c4ncc(C#N)c(Nc5ccc(F)c(Cl)c5)c4c3)c3ccccc3)nn2)CCN1 (some centres unmarked) by its pIC50 when you get a moment.
Found: top range

Lookup: Hi, small favor: classify CC(C)(C)N1CCC(n2cc([C@@H](Nc3cc(Cl)c4ncc(C#N)c(Nc5ccc6c(cnn6Cc6ccccc6)c5)c4c3)c3ccc(Cl)cc3)nn2)CC1 by its pIC50 when you get a moment.
Found: bottom range

Lookup: Hi, small favor: classify N#CCn1cc([C@@H](Nc2cc(Cl)c3ncc(C#N)c(Nc4cnc(F)c(F)c4)c3c2)c2ccc(F)cc2)nn1 by its pIC50 when you get a moment.
Found: top range

Lookup: Hi, small favor: classify CC[C@@H](Nc1c(C#N)cnc2c(Cl)cc(NC(c3ccc(F)cc3)c3nn[nH]c3OC)cc12)c1ccccc1 (some centres unmarked) by its pIC50 when you get a moment.
Found: bottom range
